- PROTOCOL TEXT: Pharmacokinetics of octreotide after subcutaneous injection (plasma radioimmunoassay)
- CONDITION PARAMETERS: human, plasma, sc, 50 μg, Plasma octreotide levels, Peak, Patient 4, Child's grade B; 50 μg s.c.
TEST READOUT: Cmax (ng/mL)
Answers are plain numbers, in ng/mL.

Which Cmax is reported for this compound? C[C@@H](O)[C@@H]1NC(=O)[C@H](CCCCN)NC(=O)[C@@H](Cc2c[nH]c3ccccc23)NC(=O)[C@H](Cc2ccccc2)NC(=O)[C@@H](NC(=O)[C@H](N)Cc2ccccc2)CSSC[C@@H](C(=O)N[C@H](CO)[C@@H](C)O)NC1=O [octreotide] 2.94

---

- PROTOCOL TEXT: Pharmacokinetics of octreotide after subcutaneous injection (plasma radioimmunoassay)
- CONDITION PARAMETERS: human, plasma, sc, 50 μg, Plasma octreotide levels, Peak, Patient 5, Child's grade B; 50 μg s.c.
TEST READOUT: Cmax (ng/mL)
Give bare numbers, in ng/mL.

Which Cmax is reported for this compound? C[C@@H](O)[C@@H]1NC(=O)[C@H](CCCCN)NC(=O)[C@@H](Cc2c[nH]c3ccccc23)NC(=O)[C@H](Cc2ccccc2)NC(=O)[C@@H](NC(=O)[C@H](N)Cc2ccccc2)CSSC[C@@H](C(=O)N[C@H](CO)[C@@H](C)O)NC1=O [octreotide] 3.28

---

- PROTOCOL TEXT: Pharmacokinetics of octreotide after subcutaneous injection (plasma radioimmunoassay)
- CONDITION PARAMETERS: both, human, plasma, sc, 50 ug, circulating (plasma) half life, range, 50 μg octreotide s.c.; range over 6 patients with cirrhosis and portal hypertension
TEST READOUT: half-life

Which half-life is reported for this compound? C[C@@H](O)[C@@H]1NC(=O)[C@H](CCCCN)NC(=O)[C@@H](Cc2c[nH]c3ccccc23)NC(=O)[C@H](Cc2ccccc2)NC(=O)[C@@H](NC(=O)[C@H](N)Cc2ccccc2)CSSC[C@@H](C(=O)N[C@H](CO)[C@@H](C)O)NC1=O [octreotide] 2.4 to 4.79 h

---

- PROTOCOL TEXT: Pharmacokinetics of octreotide after subcutaneous injection (plasma radioimmunoassay)
- CONDITION PARAMETERS: human, plasma, sc, 50 ug, t1/2, Patient 3, Child's grade A; 50 μg s.c.
TEST READOUT: half-life

Which half-life is reported for this compound? C[C@@H](O)[C@@H]1NC(=O)[C@H](CCCCN)NC(=O)[C@@H](Cc2c[nH]c3ccccc23)NC(=O)[C@H](Cc2ccccc2)NC(=O)[C@@H](NC(=O)[C@H](N)Cc2ccccc2)CSSC[C@@H](C(=O)N[C@H](CO)[C@@H](C)O)NC1=O [octreotide] 2.56 h

---

- PROTOCOL TEXT: Pharmacokinetics of octreotide after subcutaneous injection (plasma radioimmunoassay)
- CONDITION PARAMETERS: both, human, plasma, sc, 50 ug
TEST READOUT: Tmax (h)
One number for each entry, in h.

Which Tmax is reported for this compound? C[C@@H](O)[C@@H]1NC(=O)[C@H](CCCCN)NC(=O)[C@@H](Cc2c[nH]c3ccccc23)NC(=O)[C@H](Cc2ccccc2)NC(=O)[C@@H](NC(=O)[C@H](N)Cc2ccccc2)CSSC[C@@H](C(=O)N[C@H](CO)[C@@H](C)O)NC1=O [octreotide] 2

---

- PROTOCOL TEXT: Pharmacokinetics of octreotide after subcutaneous injection (plasma radioimmunoassay)
- CONDITION PARAMETERS: human, plasma, sc, 50 ug, t1/2, Patient 1, Child's grade A; 50 μg s.c.
TEST READOUT: half-life (min)
One number for each entry, in min.

Which half-life is reported for this molecule? C[C@@H](O)[C@@H]1NC(=O)[C@H](CCCCN)NC(=O)[C@@H](Cc2c[nH]c3ccccc23)NC(=O)[C@H](Cc2ccccc2)NC(=O)[C@@H](NC(=O)[C@H](N)Cc2ccccc2)CSSC[C@@H](C(=O)N[C@H](CO)[C@@H](C)O)NC1=O [octreotide] 144

---

- PROTOCOL TEXT: Pharmacokinetics of octreotide after subcutaneous injection (plasma radioimmunoassay)
- CONDITION PARAMETERS: human, plasma, sc, 50 ug, AUC, Patient 2, Child's grade A; 50 μg s.c.; AUC 2-12 h
TEST READOUT: AUC (µg·h/mL)
One number for each entry, in µg·h/mL.

Which AUC is reported for this compound? C[C@@H](O)[C@@H]1NC(=O)[C@H](CCCCN)NC(=O)[C@@H](Cc2c[nH]c3ccccc23)NC(=O)[C@H](Cc2ccccc2)NC(=O)[C@@H](NC(=O)[C@H](N)Cc2ccccc2)CSSC[C@@H](C(=O)N[C@H](CO)[C@@H](C)O)NC1=O [octreotide] 0.0172

---

- PROTOCOL TEXT: Plasma octreotide level one hour after intravenous administration (radioimmunoassay)
- Format: in vivo, human
- CONDITION PARAMETERS: human, plasma, 50 ug; 50 μg octreotide IV bolus; 13 patients with cirrhosis and portal hypertension
TEST READOUT: level at 1 h (ng/mL)
Numbers only, in ng/mL.

Which level at 1 h is reported for this molecule? C[C@@H](O)[C@@H]1NC(=O)[C@H](CCCCN)NC(=O)[C@@H](Cc2c[nH]c3ccccc23)NC(=O)[C@H](Cc2ccccc2)NC(=O)[C@@H](NC(=O)[C@H](N)Cc2ccccc2)CSSC[C@@H](C(=O)N[C@H](CO)[C@@H](C)O)NC1=O [octreotide] 1.94

---

- PROTOCOL TEXT: Pharmacokinetics of octreotide after subcutaneous injection (plasma radioimmunoassay)
- CONDITION PARAMETERS: human, plasma, sc, 50 ug, t1/2, Patient 2, Child's grade A; 50 μg s.c.
TEST READOUT: half-life (h)
Give bare numbers, in h.

Which half-life is reported for this compound? C[C@@H](O)[C@@H]1NC(=O)[C@H](CCCCN)NC(=O)[C@@H](Cc2c[nH]c3ccccc23)NC(=O)[C@H](Cc2ccccc2)NC(=O)[C@@H](NC(=O)[C@H](N)Cc2ccccc2)CSSC[C@@H](C(=O)N[C@H](CO)[C@@H](C)O)NC1=O [octreotide] 2.76

---

- PROTOCOL TEXT: Pharmacokinetics of octreotide after subcutaneous injection (plasma radioimmunoassay)
- CONDITION PARAMETERS: human, plasma, sc, 50 μg, Plasma octreotide levels, Peak, Patient 2, Child's grade A; 50 μg s.c.
TEST READOUT: Cmax (ng/mL)
Numbers only, in ng/mL.

Which Cmax is reported for this compound? C[C@@H](O)[C@@H]1NC(=O)[C@H](CCCCN)NC(=O)[C@@H](Cc2c[nH]c3ccccc23)NC(=O)[C@H](Cc2ccccc2)NC(=O)[C@@H](NC(=O)[C@H](N)Cc2ccccc2)CSSC[C@@H](C(=O)N[C@H](CO)[C@@H](C)O)NC1=O [octreotide] 2.2

---

- PROTOCOL TEXT: Pharmacokinetics of octreotide after subcutaneous injection (plasma radioimmunoassay)
- CONDITION PARAMETERS: human, plasma, sc, 50 ug, AUC, Patient 6, Child's grade C; 50 μg s.c.; AUC 2-12 h
TEST READOUT: AUC (ng·h/mL)
Numbers only, in ng·h/mL.

Which AUC is reported for this compound? C[C@@H](O)[C@@H]1NC(=O)[C@H](CCCCN)NC(=O)[C@@H](Cc2c[nH]c3ccccc23)NC(=O)[C@H](Cc2ccccc2)NC(=O)[C@@H](NC(=O)[C@H](N)Cc2ccccc2)CSSC[C@@H](C(=O)N[C@H](CO)[C@@H](C)O)NC1=O [octreotide] 23.8

---

- PROTOCOL TEXT: Pharmacokinetics of octreotide after subcutaneous injection (plasma radioimmunoassay);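 further: cirrhotic patients on twice-daily subcutaneous dosing for prevention of recurrent variceal bleeding, sampled four weeks into treatment, octreotide measured in plasma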
- CONDITION PARAMETERS: human, plasma, sc, 50 ug, AUC, Patient 4, Child's grade B; 50 μg s.c.; AUC 2-12 h
TEST READOUT: AUC (ng·h/mL)
One number for each entry, in ng·h/mL.

Which AUC is reported for this molecule? C[C@@H](O)[C@@H]1NC(=O)[C@H](CCCCN)NC(=O)[C@@H](Cc2c[nH]c3ccccc23)NC(=O)[C@H](Cc2ccccc2)NC(=O)[C@@H](NC(=O)[C@H](N)Cc2ccccc2)CSSC[C@@H](C(=O)N[C@H](CO)[C@@H](C)O)NC1=O [octreotide] 18.1
